FYI, the data here is from ChEMBL document CHEMBL4814024.

tested on: Mycobacterium tuberculosis; assay: Antimycobacterial activity against Mycobacterium tuberculosis H37Rv ATCC 27294 assessed as reduction in bacterial growth by microplate alamar blue assay; assay type: functional
Each item that follows carries a reported MIC.
Numeric only. Scale: µg/mL

Some solved entries appear below for comparison.
>>> readout_number("NC(=O)c1cnccn1 [PYRAZINAMIDE]")
6.25
>>> readout_number("O=c1n(Cc2cn(Cc3cc4ccc(Cl)cc4nc3Cl)nn2)cnn1-c1ccccc1")
25

So for COc1ccc(-n2ncn(Cc3cn(Cc4cc5cc(C)ccc5nc4Cl)nn3)c2=O)cc1 , the logged MIC turned out to be 1.6

So for O=c1n(Cc2cn(Cc3cc4cc(Cl)ccc4nc3Cl)nn2)cnn1-c1ccccc1 , the logged MIC turned out to be 12.5

###

experiment: Selectivity index, ratio of IC50 for cytotoxicity against human HEK293 cells to MIC for antimycobacterial activity against Mycobacterium tuberculosis H37Rv ATCC 27294; assay type: toxicity, cell-based; conditions: read-out: Selectivity Index
ENDPOINT: selectivity ratio
Format: numeric value only, no unit, no commentary.

So for O=c1n(Cc2cn(Cc3cc4cc(Br)ccc4nc3Cl)nn2)cnn1-c1ccccc1 , the logged selectivity ratio turned out to be 66.1

So for COc1ccc(-n2ncn(Cc3cn(Cc4cc5ccc(Cl)cc5nc4Cl)nn3)c2=O)cc1 , the logged selectivity ratio turned out to be 470

So for COc1ccc(-n2ncn(Cc3cn(Cc4cc5cc(C)ccc5nc4Cl)nn3)c2=O)cc1 , the logged selectivity ratio turned out to be 384

So for COc1ccc2cc(Cn3cc(Cn4cnn(-c5ccccc5)c4=O)nn3)c(Cl)nc2c1 , the logged selectivity ratio turned out to be 630
